I'd be grateful if you could share measured relative viability for these entries.
Test system: ABC-1
Assay: relative viability (nuclei count vs DMSO), 5 days (fraction); higher = more cells survive
Conditions: first compound 0.04 µM
Numbers only.

Clc1ccc(Nc2nnc(Cc3ccncc3)c3ccccc23)cc1 [Vatalanib] + CC(=O)c1c(C)c2cnc(Nc3ccc(N4CCNCC4)cn3)nc2n(C2CCCC2)c1=O [Palbociclib] (partner 0.5 µM) : 0.662
C[C@@H]1CN(CC(=O)Nc2ccc3c(c2)Cc2cccc(-c4cc(=O)cc(N5CCOCC5)o4)c2S3)C[C@H](C)O1 + O=C(CCCCCCC(=O)Nc1ccccc1)NO [Vorinostat] (partner 1 µM) : 0.917
COc1cc(N2CCC(C(N)=O)CC2)ccc1Nc1nc(N)c(Cl)c(Nc2ccccc2S(=O)(=O)C(C)C)n1 [HG-5-88-01] + COc1cccc2cc(-c3nc([C@H]4CC[C@H](C(=O)O)CC4)n4ncnc(N)c34)[nH]c12 [OSI-027] (partner 0.5 µM) : 0.468
COc1cc(N2CCC(C(N)=O)CC2)ccc1Nc1nc(N)c(Cl)c(Nc2ccccc2S(=O)(=O)C(C)C)n1 [HG-5-88-01] + C[C@@H](Oc1cc(-c2cnn(C3CCNCC3)c2)cnc1N)c1c(Cl)ccc(F)c1Cl [Crizotinib] (partner 1 µM) : 1.15

Give measured relative viability for every item shown.
1. C[C@@H]1CN(CC(=O)Nc2ccc3c(c2)Cc2cccc(-c4cc(=O)cc(N5CCOCC5)o4)c2S3)C[C@H](C)O1 + Nc1ncn([C@H]2C[C@H](O)[C@@H](CO)O2)c(=O)n1 [Decitabine] (partner 2 µM)
2. COc1cc(N2CCC(C(N)=O)CC2)ccc1Nc1nc(N)c(Cl)c(Nc2ccccc2S(=O)(=O)C(C)C)n1 [HG-5-88-01] + CC(C)C[C@H](NC(=O)[C@H](Cc1ccccc1)NC(=O)c1cnccn1)B(O)O [Bortezomib] (partner 0.002 µM)
3. COc1cc(N2CCC(C(N)=O)CC2)ccc1Nc1nc(N)c(Cl)c(Nc2ccccc2S(=O)(=O)C(C)C)n1 [HG-5-88-01] + CC(=O)c1c(C)c2cnc(Nc3ccc(N4CCNCC4)cn3)nc2n(C2CCCC2)c1=O [Palbociclib] (partner 0.5 µM)

[A]
0.303
0.335
0.667

[Q] # returns recorded relative viability (system: ABC-1) for Clc1ccc(Nc2nnc(Cc3ccncc3)c3ccccc23)cc1 [Vatalanib] + Nc1ncn([C@H]2C[C@H](O)[C@@H](CO)O2)c(=O)n1 [Decitabine] (partner 2 µM)
[A] 1.02
